Cited source: PubChem BioAssay

Task for the reader: assign each of the following molecules its reported GFP response vs DMSO.
experiment: RPL19A-GFP modulators, yeast TOR pathway, confirmation, cell-based, S. cerevisiae, flow cytometry, cherry picks, mother/daughter gates (AID 2270); conditions: S. cerevisiae RPL19A-GFP strain, 3 h, measured here: mother cell gate, at 10 µM, stronger effect = lower value, 100 = same GFP as DMSO wells
Answers are plain numbers, in %.

Some molecules with recorded GFP response vs DMSO:
{"columns": ["Molecule", "GFP response vs DMSO (%)"],
 "data": [
  ["Cc1ccc(C(=O)OCC(=O)Nc2ccccc2Sc2ccccc2)cc1C", 99.7],
  ["COc1ccc(-c2csc(N(CC(C)C)C(=O)c3ccco3)n2)cc1", 97.7],
  ["O=[N+]([O-])c1cc(F)c2cccnc2c1O", 96.7],
  ["Nc1ccc(C(=O)N/N=C/c2ccccc2)cc1", 106],
  ["O=C(c1ccccn1)c1conc1C(=O)c1ccc(Br)cc1", 102]
]}

For every item below, please supply its GFP response vs DMSO.
1. Cc1ccc(Sc2ccc([N+](=O)[O-])cc2[N+](=O)[O-])nc1
2. O=C(O)CSC1CC(=O)N(c2ccc(Cl)c(Cl)c2)C1=O (centres undefined)
3. O=C(CSc1cccc[n+]1[O-])CSc1cccc[n+]1[O-]
4. CC1=NNC(=O)/C1=C\c1cn(-c2ccccc2)nc1-c1cccs1
5. Cc1ccc(-c2nnc(NC(=O)c3ccc([N+](=O)[O-])o3)o2)c(C)c1
6. CCCn1c(=O)c(C(=O)Nc2ccccc2C(=O)OCC)c(O)c2ccccc21
7. COc1ccc(-c2nc(N)n(C(C)=O)n2)cc1

100
97.5
95
89.6
99.8
95.2
104

---

test: RPL19A-GFP modulators, yeast TOR pathway, confirmation, cell-based, S. cerevisiae, flow cytometry, cherry picks, mother/daughter gates (AID 2270); conditions: S. cerevisiae RPL19A-GFP strain, 3 h, measured here: daughter cell gate, at 10 µM, stronger effect = lower value, 100 = same GFP as DMSO wells
Please respond with reported GFP response vs DMSO for every item in the list.
Numbers only, in %.

In the examples that follow, each entry is paired with its recorded GFP response vs DMSO.
{"columns": ["Compound", "Attribute measured", "Endpoint result"],
 "data": [
  ["Cc1cc(O)c(C(=O)/C=C/c2ccc(C(C)C)cc2)c(=O)o1", "GFP response vs DMSO", 93.9],
  ["CC(=O)c1sc2nc(C)c3c(c2c1N)CCCC3", "GFP response vs DMSO", 88.5]
]}

Provide GFP response vs DMSO for all items below, preserving their order.
1. O=C(O)c1ccc(N/N=C/C(Br)=C/c2ccccc2)cc1
2. CCNC(=O)/C(C#N)=C/c1c(N2CC(C)OC(C)C2)nc2ccccn2c1=O (stereo unspecified)
3. COc1cc(OC)cc(C(=O)N2CCN(c3ccccc3F)CC2)c1
4. CCn1c(/C=C/c2ccc([N+](=O)[O-])o2)nc2ccccc2c1=O
5. O=[N+]([O-])c1ccc(S(=O)(=O)c2cccc(C(F)(F)F)c2)nc1
6. C=CCNC(=O)/C(=C\c1ccc(OC)cc1)NC(=O)c1ccc([N+](=O)[O-])cc1
7. CC(C)c1nnc(NC(=O)c2nc(S(=O)(=O)Cc3ccccc3F)ncc2Cl)s1
8. Cc1cc(O)c(C(=O)/C=C/c2ccccc2O)c(=O)o1

97
99.3
97.3
143
92.5
97.6
97.8
98.9

Given the compound NC(=O)CSCc1c(Cl)cccc1Cl , what is its reported GFP response vs DMSO?
100

---

assay: modulators of CIT2-GFP expression in yeast, confirmation, S. cerevisiae, GFP fusion, cherry picks, mother/daughter gates (AID 2274); settings: S. cerevisiae CIT2-GFP strain, flow cytometry, 3 h; measured here: mother cell gate; at 10 µM; stronger effect = higher value
Kindly state GFP response, % of DMSO for each of the entries shown.
Numbers only, in %.

{"columns": ["Compound", "GFP response, % of DMSO (%)"],
 "data": [
  ["COc1ccc(CCNC2=C(Cl)C(=O)N(CCc3ccccc3)C2=O)cc1OC", 103],
  ["O=C1/C(=C\\c2ccccn2)SC(=S)N1Nc1ncc(C(F)(F)F)cc1Cl", 93.3],
  ["CCN=C(NCC)SC1CC(=O)N(c2cccc(OCC)c2)C1=O (stereo unspecified)", 102],
  ["COC(=O)CNc1c(-c2ccccn2)nc2ccc(Br)cn12", 104],
  ["O=C(N/N=C/c1cccc(Oc2ccccc2)c1)c1ccncc1", 96]
]}

# next compound below
I'd like to know its GFP response, % of DMSO. The compound in question is CC1CC2=C(CC1/C=N/NC(N)=S)C(C)(C)CCC2 (stereo unspecified)
90.7

---

assay: inhibitors of CD8+ T cell-vesicle binding, pilot screen, LFA-1/ICAM-1 modulator project, MLPCN validation set, flow cytometry (AID 2523); conditions: 2C mouse CD8+ T cells, at 7 µM, stronger effect = lower value; measured here: CD8+/vesicle+ event percentage
Attribute measured: double positive events (%)
Answers are plain numbers, in %.

Below: 4 molecules and their reported double positive events.
{"columns": ["Molecule", "Unit annotation", "double positive events"],
 "data": [
  ["O=C1Nc2ccc3sc4ccccc4c3c2C1=O", "%", 62],
  ["Cc1ccc(OCCSc2ncccn2)c(C)c1", "%", 49.1],
  ["CC[C@]1(O)C[C@@H]2CN(CCc3c([nH]c4ccccc34)[C@@](C(=O)OC)(c3cc4c(cc3OC)N(C)[C@H]3[C@@](O)(C(=O)OC)[C@H](OC(C)=O)[C@]5(CC)C=CCN6CC[C@]43[C@@H]65)C2)C1", "%", 55.4],
  ["O=C1N[C@@H](Cc2cnc[nH]2)C(=O)N2CCC[C@@H]12", "%", 59.8]
]}

Requested read-out: double positive events. Entry: Nc1ncnc2c1ncn2C1OC(CO)C(O)C1O (stereo not given)
48.3

---

Record form. Attribute: GFP response vs DMSO. Fill in for each entry.
test: RPL19A-GFP modulators, yeast TOR pathway, confirmation, cell-based, S. cerevisiae, flow cytometry, cherry picks, mother/daughter gates (AID 2270); conditions: S. cerevisiae RPL19A-GFP strain, 3 h, measured here: mother cell gate, at 10 µM, stronger effect = lower value, 100 = same GFP as DMSO wells
Numbers only, in %.

// known answers, use as guide
{"columns": ["Compound", "Unit annotation", "GFP response vs DMSO"],
 "data": [
  ["COc1ccc(-c2nn(-c3ccccc3)cc2C(=O)N/N=C/c2ccc([N+](=O)[O-])o2)cc1", "%", 103],
  ["O=C(c1ccc2ccccc2c1)N1CCN(c2ccc(O)cc2)CC1", "%", 101],
  ["CC(Oc1cccc(Cl)c1)C(=O)Nc1nc(-c2ccccn2)cs1 (stereo not given)", "%", 103],
  ["O=C(c1ccc(Cl)cc1)N1CCN(c2cccc3[nH]ccc23)CC1", "%", 93.1]
]}

Lab note: each compound below needs its GFP response vs DMSO filled in.
1. COc1ccc(-c2cc3cc(C(=O)O)ccn3c2C(=O)c2ccccc2)cc1
2. O=C1Nc2ccccc2C(=O)C1(Cl)Cc1ccccc1 (stereo not given)
3. Cc1cc(C)c(S(=O)(=O)NCC23C=CC(O2)C2C(=O)N(c4ccccc4)C(=O)C23)c(C)c1 (stereo not given)
4. COc1ccc(OCC(O)CNC(=O)/C=C/c2cccc([N+](=O)[O-])c2)cc1 (stereo not given)
5. O=C1c2ccccc2C(=O)c2c([N+](=O)[O-])ccc(O)c21
6. Cn1c(C(=O)O)cc2c(=O)n3ccccc3nc21

[98.4, 88.3, 103, 100, 74.2, 99]

---

Can you tell me GFP response, % of DMSO for the items I'm about to list?
assay: modulators of CIT2-GFP expression in yeast, confirmation, S. cerevisiae, GFP fusion, cherry picks, mother/daughter gates (AID 2274); settings: S. cerevisiae CIT2-GFP strain, flow cytometry, 3 h; at 10 µM; stronger effect = higher value
Answers are plain numbers, in %.

{"columns": ["Compound", "Attribute measured", "Unit annotation", "Endpoint result"],
 "data": [
  ["O=C(CSc1ccc(-c2ccccn2)nn1)N1CCCCC1", "GFP response, % of DMSO", "%", 99.3],
  ["CCn1c(/C=C/c2ccc([N+](=O)[O-])o2)nc2ccccc2c1=O", "GFP response, % of DMSO", "%", 278],
  ["O=C1/C(=C/c2ccccn2)COc2ccccc21", "GFP response, % of DMSO", "%", 94.4],
  ["Cc1c(O)nc(SC2CC(=O)N(c3ccccc3)C2=O)[nH]c1=O (stereo unspecified)", "GFP response, % of DMSO", "%", 96.4],
  ["CCCc1[nH]nc2c1C(c1ccc(OC(=O)c3ccco3)cc1)C(C#N)=C(N)O2 (stereo unspecified)", "GFP response, % of DMSO", "%", 105],
  ["Oc1c(Br)cc(Br)cc1C=NCc1ccccc1", "GFP response, % of DMSO", "%", 104],
  ["CC1(C)CC(=O)C(C(C2=C(O)CC(C)(C)CC2=O)c2cccs2)C(=O)C1 (stereo unspecified)", "GFP response, % of DMSO", "%", 101],
  ["CCc1cccc(C)c1NC(=O)CC1Oc2ccc(C)cc2NC1=O (stereo unspecified)", "GFP response, % of DMSO", "%", 98.6]
]}

Batch of 4 compounds: report GFP response, % of DMSO for each.
1. CCOc1ccc(N2C(=O)CC(Sc3nccc(C)n3)C2=O)cc1 (stereo unspecified)
2. CCOc1ccc(N2C(=O)C(Cl)=C(Nc3ccccc3O)C2=O)cc1
3. O=C(Nc1c2ccccc2nc2ccccc12)C(Cl)(Cl)Cl
4. CCc1cc(=O)oc2c(CN3CCCC3)c(O)c(Cl)cc12

[100, 97.8, 95.9, 107]
